System: pSer473-Akt in A2780 cells
experimental_protocol: pSer473 Akt assay to monitor PI3K pathway in A2780 cells (MSD)
Assay type: cell-based
reported_conditions: Homo sapiens; A2780 cells; read-out: A2780 pAKT 473 EC50
Record form. Attribute: EC50. Fill in for each entry.

[in] Lab note: need EC50 for `CNCC(=O)Nc1cn2nc(-c3cnc(N)c(C(F)(F)F)c3)ccc2n1` on pSer473-Akt in A2780 cells, anyone have it?
[out] < 1 µM

[in] Lab note: need EC50 for `COc1ccc(CC(=O)Nc2cn3cc(-c4cnc(N)c(C(F)(F)F)c4)ccc3n2)cc1OC` on pSer473-Akt in A2780 cells, anyone have it?
[out] < 1 µM

[in] Lab note: need EC50 for `CC(=O)Nc1cn2cc(-c3cnc(N)c(Oc4ccc(F)cc4)n3)ccc2n1` on pSer473-Akt in A2780 cells, anyone have it?
[out] < 1 µM

[in] Lab note: need EC50 for `CC(=O)Nc1cn2cc(-c3cnc(N)c(C(F)(F)F)c3)cc(F)c2n1` on pSer473-Akt in A2780 cells, anyone have it?
[out] < 1 µM

[in] Lab note: need EC50 for `CC(=O)Nc1cn2cc(-c3cnc(N)c(/C=N/NCC(F)(F)F)c3)ccc2n1` on pSer473-Akt in A2780 cells, anyone have it?
[out] < 1 µM

[in] Lab note: need EC50 for `COC(=O)Nc1cn2cc(-c3cnc(N)c(C(F)(F)F)c3)ccc2n1` on pSer473-Akt in A2780 cells, anyone have it?
[out] < 1 µM

[in] Lab note: need EC50 for `CC(=O)Nc1nc2ccc(-c3cnc(N)c(C(F)(F)F)c3)cn2c1Cl` on pSer473-Akt in A2780 cells, anyone have it?
[out] < 10 µM

[in] Lab note: need EC50 for `CNCC(=O)Nc1cn2cc(-c3cnc(N)c(OCCOC)n3)ccc2n1` on pSer473-Akt in A2780 cells, anyone have it?
[out] < 1 µM

[in] Lab note: need EC50 for `CC(=O)Nc1cn2cc(-c3cnc(N)c(/C=N/Nc4ccccc4)c3)ccc2n1` on pSer473-Akt in A2780 cells, anyone have it?
[out] < 10 µM

[in] Lab note: need EC50 for `Nc1ncc(-c2ccc3nc(NC(=O)C(F)(F)F)cn3c2)cn1` on pSer473-Akt in A2780 cells, anyone have it?
[out] < 25 µM

[in] Lab note: need EC50 for `CC(=O)Nc1cn2cc(-c3cnc(N)c(C)c3)ccc2n1` on pSer473-Akt in A2780 cells, anyone have it?
[out] < 1 µM

[in] Lab note: need EC50 for `Nc1ncc(-c2ccc3nc(NC(=O)CCCN4CCOCC4)cn3n2)cc1C(F)(F)F` on pSer473-Akt in A2780 cells, anyone have it?
[out] < 1 µM

[in] Lab note: need EC50 for `CCC(=O)Nc1cn2nc(-c3cnc(N)c(C(F)(F)F)c3)ccc2n1` on pSer473-Akt in A2780 cells, anyone have it?
[out] < 1 µM

[in] Lab note: need EC50 for `CCN(CC)CC#Cc1c(NC(C)=O)nc2ccc(-c3cnc(N)c(C(F)(F)F)c3)cn12` on pSer473-Akt in A2780 cells, anyone have it?
[out] < 1 µM

[in] Lab note: need EC50 for `CC(C)(C)OC(=O)N1CCN(c2ccc(C(=O)Nc3cn4cc(-c5cnc(N)c(C(F)(F)F)c5)ccc4n3)cn2)CC1` on pSer473-Akt in A2780 cells, anyone have it?
[out] < 1 µM

[in] Lab note: need EC50 for `CC(=O)Nc1cn2nc(-c3cnc(N)c(C(=O)NCCNC(=O)OC(C)(C)C)c3)ccc2n1` on pSer473-Akt in A2780 cells, anyone have it?
[out] < 1 µM

[in] Lab note: need EC50 for `CC(=O)Nc1cn2cc(-c3cnc(N)c(-c4ccccc4C(F)(F)F)c3)ccc2n1` on pSer473-Akt in A2780 cells, anyone have it?
[out] < 1 µM

[in] Lab note: need EC50 for CCN1CCCCC1CCC(=O)Nc1cn2nc(-c3cnc(N)c(C(F)(F)F)c3)ccc2n1 (stereo not shown) on pSer473-Akt in A2780 cells, anyone have it?
[out] < 1 µM

[in] Lab note: need EC50 for `CC(=O)Nc1cn2cc(-c3cnc(N)c(/C=N/N(C)C)c3)ccc2n1` on pSer473-Akt in A2780 cells, anyone have it?
[out] < 1 µM

[in] Lab note: need EC50 for `CC(=O)Nc1cn2cc(-c3cnc(N)c(OC(C)C)n3)ccc2n1` on pSer473-Akt in A2780 cells, anyone have it?
[out] < 1 µM

[in] Lab note: need EC50 for `CCOc1cc(-c2ccc3nc(NC(C)=O)cn3n2)cnc1N` on pSer473-Akt in A2780 cells, anyone have it?
[out] < 1 µM

[in] Lab note: need EC50 for `CC(=O)Nc1cn2cc(-c3cnc(N)c(C#N)c3)ccc2n1` on pSer473-Akt in A2780 cells, anyone have it?
[out] < 10 µM
